Molecular target: recombinant human CL receptor/RAMP1 (Homo sapiens (Human), UniProt O60894+Q16602)
Sequence (Q16602 23-461): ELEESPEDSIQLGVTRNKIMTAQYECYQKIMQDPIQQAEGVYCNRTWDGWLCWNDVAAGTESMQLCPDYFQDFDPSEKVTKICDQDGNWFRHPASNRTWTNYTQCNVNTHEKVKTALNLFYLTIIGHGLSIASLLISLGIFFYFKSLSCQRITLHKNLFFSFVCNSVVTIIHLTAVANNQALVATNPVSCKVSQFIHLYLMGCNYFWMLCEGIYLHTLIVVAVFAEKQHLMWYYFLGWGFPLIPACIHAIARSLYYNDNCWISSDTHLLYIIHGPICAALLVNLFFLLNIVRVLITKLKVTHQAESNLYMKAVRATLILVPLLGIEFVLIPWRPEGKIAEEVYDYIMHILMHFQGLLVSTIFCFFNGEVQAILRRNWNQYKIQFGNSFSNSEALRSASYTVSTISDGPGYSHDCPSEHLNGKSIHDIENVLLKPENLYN
Sequence (O60894 27-148): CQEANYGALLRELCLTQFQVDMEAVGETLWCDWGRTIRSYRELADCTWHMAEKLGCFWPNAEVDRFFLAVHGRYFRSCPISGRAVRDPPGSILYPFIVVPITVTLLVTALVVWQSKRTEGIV
Assay: Recombinant receptor binding assay (125I-hCGRP)
Details: exemplary compounds of the invention; 10 pM 125I-hCGRP, membranes of HEK 293 cells; read-out: Ki
pKi: −log10 of the molar value. Counter-ions that a name gives are not always drawn.
Decision: pKi >= 10 yields rule met, all other cases yield rule not met.

- Molecule: "O=C(N[C@H]1C[C@@H](c2ccccc2F)CN(CC(F)(F)F)C1=O)c1cnc2c(c1)C[C@@]1(C2)C(=O)Nc2ncccc21"
  Group: "rule not met"

Q: Can C[C@@H]1[C@H](c2cc(F)cc(F)c2F)C[C@H](NC(=O)c2cnc3c(c2)C[C@@]2(C3)C(=O)Nc3ncccc32)C(=O)N1CC(F)(F)F [Example 5, dihydrochloride] be said to have pKi at or above 10?
Ans: rule met

Q: Now consider O=C(N[C@H]1C[C@@H](c2c(F)cccc2Cl)CN(CC(F)(F)F)C1=O)c1cnc2c(c1)C[C@@]1(C2)C(=O)Nc2ncccc21 .
Ans: rule not met

----------
Quick reference: Ki of the listed items.
Molecular target: recombinant human CL receptor/RAMP1 (Homo sapiens (Human), UniProt O60894+Q16602)
Test: Recombinant receptor binding assay (125I-hCGRP)
Conditions: analogues disclosed in U.S. Pat. No. 7,390,798 and US 2010/0179166; read-out: Ki (CGRP binding data)
Write down the numeric answer in nM and omit the unit.

Worked set:
- Molecule: "O=C(N[C@@H]1CC[C@@H](c2cccc(F)c2F)CN(CC(F)(F)F)C1=O)c1ccc2c(c1)CC1(C2)C(=O)Nc2ncccc21 (stereo partly shown)"
  Result Units: "nM"
  Ki: 1.9
- Molecule: "CN1C[C@H](c2cccc(F)c2F)CC[C@@H](NC(=O)c2ccc3c(c2)CC2(C3)C(=O)Nc3ncccc32)C1=O (stereo partly shown)"
  Result Units: "nM"
  Ki: 7.4
- Molecule: "CC(C)(O)c1cnc2n1C[C@H](c1cccc(F)c1F)CC[C@H]2NC(=O)c1cc2c(cn1)CC1(C2)C(=O)Nc2ncccc21 (stereo partly shown)"
  Result Units: "nM"
  Ki: 4.3

Q: Reported Ki, molecule CC(C)(O)CN1C[C@H](c2cccc(F)c2F)CC[C@@H](NC(=O)c2ccc3c(c2)CC2(C3)C(=O)Nc3ncccc32)C1=O (stereo partly shown) : ____
Ans: 1.7

----------
Target: recombinant human CL receptor/RAMP1 (Homo sapiens (Human), UniProt O60894+Q16602)
Test: Recombinant receptor binding assay (125I-hCGRP)
Details: exemplary compounds of the invention; 10 pM 125I-hCGRP, membranes of HEK 293 cells; read-out: Ki
Recorded Metric: Ki (nM)
Write down the numeric answer in nM and omit the unit.

Worked set:
- Structure As Smiles: "C[C@@H]1[C@H](c2ccccc2)C[C@H](NC(=O)c2cnc3c(c2)C[C@@]2(C3)C(=O)Nc3ncncc32)C(=O)N1CC(F)(F)F"
  Measured Target: "recombinant human CL receptor/RAMP1 (Homo sapiens (Human), UniProt O60894+Q16602)"
  Recorded Metric: "Ki"
  Value Measured: 0.17
- Structure As Smiles: "C[C@@H]1[C@H](c2ccccc2)C[C@H](NC(=O)c2cnc3c(c2)C[C@@]2(C3)C(=O)Nc3ncccc32)C(=O)N1CC(F)(F)F"
  Measured Target: "recombinant human CL receptor/RAMP1 (Homo sapiens (Human), UniProt O60894+Q16602)"
  Recorded Metric: "Ki"
  Value Measured: 0.067
- Structure As Smiles: "Cc1ccccc1[C@@H]1C[C@H](NC(=O)c2cnc3c(c2)C[C@@]2(C3)C(=O)Nc3ncccc32)C(=O)N(CC(F)(F)F)[C@@H]1C"
  Measured Target: "recombinant human CL receptor/RAMP1 (Homo sapiens (Human), UniProt O60894+Q16602)"
  Recorded Metric: "Ki"
  Value Measured: 0.067
- Structure As Smiles: "C[C@@H]1[C@H](c2ccccc2)C[C@H](NC(=O)c2cnc3c(c2)C[C@@]2(C3)C(=O)Nc3ncc(C#N)cc32)C(=O)N1CC(F)(F)F"
  Measured Target: "recombinant human CL receptor/RAMP1 (Homo sapiens (Human), UniProt O60894+Q16602)"
  Recorded Metric: "Ki"
  Value Measured: 0.14

The record that follows has no Ki shown yet.
Q: Reported Ki, molecule O=C(N[C@H]1C[C@@H](c2cccc(F)c2F)CN(CC2CCC2)C1=O)c1cnc2c(c1)C[C@@]1(C2)C(=O)Nc2ncccc21 : ____
Ans: 0.055
